TGT: CaSho1
RUN DESCRIPTION: SPOT peptide array binding signal intensity (averaged, normalized) (arbitrary units (background-subtracted, floor 0; scale differs between SH3 domains)); higher = stronger binding of the SH3 domain to the peptide
TEST READOUT: SPOT peptide array binding signal intensity

INSERT INTO results (binder, operator, quantitative_result) VALUES
  ('VQPTAAPATPPRHIS', '≤', 0),
  ('DTIDNVKSKIQDKEG', '≤', 0),
  ('FPPKRKPLLRPQRSD', '=', 245),
  ('QFDLKMPSKPIHNLK', '=', 376),
  ('PPLPRAPPVPPATFE', '=', 14),
  ('HPRFVSPRIPSRIVK', '=', 170),
  ('SKAKRPKFLLDLQIK', '=', 148);
